- Experimental target: NEK7 (Homo sapiens (Human), UniProt Q8TDX7+Q96SW2)
- Sequence (Q8TDX7 whole entry): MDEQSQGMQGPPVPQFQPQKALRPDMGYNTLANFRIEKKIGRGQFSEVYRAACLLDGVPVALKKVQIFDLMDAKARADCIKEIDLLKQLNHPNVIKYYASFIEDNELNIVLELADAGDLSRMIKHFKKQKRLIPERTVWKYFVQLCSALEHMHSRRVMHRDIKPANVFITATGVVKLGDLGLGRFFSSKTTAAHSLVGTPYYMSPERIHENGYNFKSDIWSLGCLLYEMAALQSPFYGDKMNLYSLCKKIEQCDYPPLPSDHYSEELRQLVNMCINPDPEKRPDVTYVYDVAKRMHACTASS
- Sequence (Q96SW2 whole entry): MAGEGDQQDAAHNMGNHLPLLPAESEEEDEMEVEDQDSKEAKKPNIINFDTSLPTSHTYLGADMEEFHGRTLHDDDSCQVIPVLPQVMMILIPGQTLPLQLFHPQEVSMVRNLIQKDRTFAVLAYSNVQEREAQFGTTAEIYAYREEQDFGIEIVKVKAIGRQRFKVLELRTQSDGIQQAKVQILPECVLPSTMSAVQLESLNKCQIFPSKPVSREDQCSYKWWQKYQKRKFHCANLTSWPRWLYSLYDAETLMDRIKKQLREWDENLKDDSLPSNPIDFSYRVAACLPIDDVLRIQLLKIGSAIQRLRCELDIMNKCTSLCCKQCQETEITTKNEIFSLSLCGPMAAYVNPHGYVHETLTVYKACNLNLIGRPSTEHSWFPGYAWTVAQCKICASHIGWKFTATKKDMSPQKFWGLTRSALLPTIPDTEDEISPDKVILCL
- Sequence (Q16531 2-1140 partner): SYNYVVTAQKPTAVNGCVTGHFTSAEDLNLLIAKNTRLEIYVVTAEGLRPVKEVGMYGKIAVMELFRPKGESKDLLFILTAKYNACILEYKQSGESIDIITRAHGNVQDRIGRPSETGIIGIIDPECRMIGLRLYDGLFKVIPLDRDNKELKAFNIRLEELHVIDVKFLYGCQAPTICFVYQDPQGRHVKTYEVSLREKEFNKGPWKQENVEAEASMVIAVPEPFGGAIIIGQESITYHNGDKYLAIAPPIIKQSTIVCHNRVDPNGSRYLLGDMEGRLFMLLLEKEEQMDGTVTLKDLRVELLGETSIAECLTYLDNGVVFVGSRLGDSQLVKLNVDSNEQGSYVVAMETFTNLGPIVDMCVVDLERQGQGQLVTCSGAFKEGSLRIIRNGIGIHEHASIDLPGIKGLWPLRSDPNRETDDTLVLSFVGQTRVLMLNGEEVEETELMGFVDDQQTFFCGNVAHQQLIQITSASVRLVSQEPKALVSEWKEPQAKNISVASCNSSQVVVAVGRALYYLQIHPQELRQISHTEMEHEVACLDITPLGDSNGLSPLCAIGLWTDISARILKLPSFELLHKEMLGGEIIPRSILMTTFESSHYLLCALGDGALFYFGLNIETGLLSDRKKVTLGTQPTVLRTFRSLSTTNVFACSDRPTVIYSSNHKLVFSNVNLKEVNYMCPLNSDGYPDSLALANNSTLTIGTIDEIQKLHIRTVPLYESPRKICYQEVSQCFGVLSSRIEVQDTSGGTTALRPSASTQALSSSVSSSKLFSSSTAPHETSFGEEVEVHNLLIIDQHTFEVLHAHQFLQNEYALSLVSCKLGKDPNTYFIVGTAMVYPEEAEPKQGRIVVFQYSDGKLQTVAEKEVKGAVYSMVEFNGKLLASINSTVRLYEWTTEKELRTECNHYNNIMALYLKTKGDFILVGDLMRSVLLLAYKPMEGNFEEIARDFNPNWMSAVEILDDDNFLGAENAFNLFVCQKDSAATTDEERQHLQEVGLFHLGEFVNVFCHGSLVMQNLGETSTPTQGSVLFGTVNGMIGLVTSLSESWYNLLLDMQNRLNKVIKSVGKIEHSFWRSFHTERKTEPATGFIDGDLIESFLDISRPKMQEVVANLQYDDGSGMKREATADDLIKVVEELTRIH
- Protocol details: NEK7 NanoBiT degradation assay in Cal51 NEK7 NanoBiT cell line
- Format: cell-based
- Condition notes: CAL-51; Cal51 NEK7 NanoBiT cells, 24 hours; read-out: NEK7 NanoBiT Dmax
- Procedure: Cal51 NEK7 NanoBiT cell line was generated via CRISPR Knock-In of the HiBiT tag in NEK7 gene and stable infection with a lentivirus carrying LgBiT protein. The cell line was generated in house. […] Cells were incubated at 37° C., 5% CO2 for 24 hours and then signal was read on a Pherastar FSX using “LUM plus” optic module with 4095 gain and measurement interval time 0.2 seconds. […]
Test readout: Dmax (%)

[[record]]
molecule = "Cc1ncc(C(C)(C)C(=O)NCc2cc(F)c(C3CCC(=O)NC3=O)c(Cl)c2)o1 (stereo not shown)"
units_symbol = "%"
measurement = 67

[[record]]
molecule = "COc1nc(C(C)(C)C(=O)NCc2cc(Cl)c(C3CCC(=O)NC3=O)c(Cl)c2)ncc1C (stereo not shown)"
units_symbol = "%"
measurement = 82

[[record]]
molecule = "CC(C)(C(=O)NCc1cc(F)c(C2CCC(=O)NC2=O)c(Cl)c1)c1nocc1C(F)(F)F (stereo not shown)"
units_symbol = "%"
measurement = 71

[[record]]
molecule = "O=C1CCC(c2c(Cl)cc(CNC(=O)C3(c4ccc(F)cc4)CC(F)(F)C3)cc2Cl)C(=O)N1 (stereo not shown)"
units_symbol = "%"
measurement = 90

[[record]]
molecule = "CC(C)(C(=O)NCc1cc(Cl)c(C2CCC(=O)NC2=O)c(Cl)c1)c1ccc(C(F)F)nn1 (stereo not shown)"
units_symbol = "%"
measurement = 91

[[record]]
molecule = "CC(C)(C(=O)NCc1cc(Cl)c(C2CCC(=O)NC2=O)c(Cl)c1)c1ncc(C2CC2)cn1 (stereo not shown)"
units_symbol = "%"
measurement = 89

[[record]]
molecule = "CN(C)S(=O)(=O)c1ccc(C(C)(C)C(=O)NCc2cc(Cl)c(C3CCC(=O)NC3=O)c(Cl)c2)cc1 (stereo not shown)"
units_symbol = "%"
measurement = 92


###

- Experimental target: CRBN-DDB1 (Homo sapiens (Human), UniProt Q96SW2)
- Sequence (Q96SW2 whole entry): as the sequence (Q96SW2 whole entry) above
- Sequence (Q16531 whole entry partner): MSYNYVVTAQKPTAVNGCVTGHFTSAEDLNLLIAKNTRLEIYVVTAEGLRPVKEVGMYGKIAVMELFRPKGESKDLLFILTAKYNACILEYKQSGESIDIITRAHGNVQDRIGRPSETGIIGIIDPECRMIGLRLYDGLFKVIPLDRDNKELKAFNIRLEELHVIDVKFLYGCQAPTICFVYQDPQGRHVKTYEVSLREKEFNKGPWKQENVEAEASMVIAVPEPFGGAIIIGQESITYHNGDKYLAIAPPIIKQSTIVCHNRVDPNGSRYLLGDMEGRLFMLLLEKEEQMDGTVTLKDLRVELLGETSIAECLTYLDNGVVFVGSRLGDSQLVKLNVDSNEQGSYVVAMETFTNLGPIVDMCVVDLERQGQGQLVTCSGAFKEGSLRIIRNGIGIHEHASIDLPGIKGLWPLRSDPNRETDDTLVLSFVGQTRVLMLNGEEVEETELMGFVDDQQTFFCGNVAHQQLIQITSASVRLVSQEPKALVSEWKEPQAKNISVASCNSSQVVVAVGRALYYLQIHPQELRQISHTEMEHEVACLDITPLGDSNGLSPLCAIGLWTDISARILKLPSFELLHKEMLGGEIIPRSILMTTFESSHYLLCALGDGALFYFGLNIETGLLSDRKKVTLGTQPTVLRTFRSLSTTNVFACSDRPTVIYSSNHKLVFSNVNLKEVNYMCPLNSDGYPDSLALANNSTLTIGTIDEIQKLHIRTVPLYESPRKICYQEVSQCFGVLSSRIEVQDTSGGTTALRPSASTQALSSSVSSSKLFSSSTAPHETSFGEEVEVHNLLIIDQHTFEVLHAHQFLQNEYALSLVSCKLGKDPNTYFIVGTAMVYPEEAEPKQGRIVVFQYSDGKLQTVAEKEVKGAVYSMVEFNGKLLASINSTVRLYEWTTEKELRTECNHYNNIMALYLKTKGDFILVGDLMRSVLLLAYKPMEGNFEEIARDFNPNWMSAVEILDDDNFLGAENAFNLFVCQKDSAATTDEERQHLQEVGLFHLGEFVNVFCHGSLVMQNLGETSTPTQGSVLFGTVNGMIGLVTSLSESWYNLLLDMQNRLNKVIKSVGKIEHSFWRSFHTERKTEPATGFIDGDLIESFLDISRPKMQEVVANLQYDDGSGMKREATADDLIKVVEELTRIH
- Protocol details: Compound binding to CRBN by HTRF assay
Test readout: EC50 (nM)

[[record]]
compound = "CC(C)(C(=O)NCc1cc(Cl)c(C2CCC(=O)NC2=O)c(Cl)c1)c1cnc2ncsc2c1 (stereo not shown)"
test_readout = "EC50"
measurement = 90

[[record]]
compound = "O=C1CCC(c2c(Cl)cc(CNC(=O)C3(c4ncccn4)CCC3)cc2Cl)C(=O)N1 (stereo not shown)"
test_readout = "EC50"
measurement = 180

[[record]]
compound = "CC(C)(C(=O)NCc1cc(Cl)c(C2CCC(=O)NC2=O)c(Cl)c1)c1ccc(F)cn1 (stereo not shown)"
test_readout = "EC50"
measurement = 120


1. CC(C)(C(=O)NCc1cc(Cl)c([C@H]2CCC(=O)NC2=O)c(Cl)c1)c1ncccn1 (single isomer, unassigned)
2. CC(C)(C(=O)NCc1cc(Cl)c(C2CCC(=O)NC2=O)c(Cl)c1)c1cc(C#N)ccn1 (stereo not shown)
Lab notebook, comparison: 1 versus 2 , higher EC50 goes to which? Could you answer with the label of the item you picked?
2
(2: 190 nM, 1: 120 nM)

a. CC(C)(C(=O)NCc1cc(Cl)c(C2CCC(=O)NC2=O)c(Cl)c1)c1nccc(C2CC2)n1 (stereo not shown)
b. O=C1CCC(c2c(Cl)cc(CNC(=O)C3(c4ccc(F)cc4)CC(F)(F)C3)cc2Cl)C(=O)N1 (stereo not shown)
Which of the two gives a bigger number for EC50: a or b ? I would appreciate it if you answered with the label of your choice.
a
(a: 150 nM, b: 40 nM)
